# systemUnderTest: recombinant PRL-3 (Homo sapiens, UniProt O75365)
# Construct: 6xHis (N, cleaved yes); made in house; host or cells: E. coli One Shot BL21 Star
# Sequence (O75365 whole entry): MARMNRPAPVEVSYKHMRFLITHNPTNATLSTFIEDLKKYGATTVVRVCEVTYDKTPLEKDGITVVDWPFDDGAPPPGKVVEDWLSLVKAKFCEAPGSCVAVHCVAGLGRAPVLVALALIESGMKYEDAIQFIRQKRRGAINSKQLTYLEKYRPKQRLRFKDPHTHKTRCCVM
# assayProcedure: In vitro phosphatase assay (DiFMUP hydrolysis), PRL-3; also: test concentration or dose not given here
# Assay type: biochemical
# experimentalConditions: FDA-approved drug screen; compared to DMSO
# % Phosphatase Activity (compared to DMSO) PRL-3 values compiled below
Could you give me the number in %? Just the number is fine.

The compound identified as "C[C@@H]1CC[C@H]2[C@@H](C)C(=O)O[C@@H]3O[C@@]4(C)CC[C@@H]1[C@]32OO4" registered its % Phosphatase Activity (compared to DMSO) PRL-3 at 80

For this compound ( "CC/C(=C(/CC)c1ccc(O)cc1)c1ccc(O)cc1" ), measured % Phosphatase Activity (compared to DMSO) PRL-3 is 92

Lab note: measured % Phosphatase Activity (compared to DMSO) PRL-3 of "CC(=O)NC[C@H]1CN(c2ccc(N3CCOCC3)c(F)c2)C(=O)O1" was 89

Noted for "CC[C@H]1OC(=O)[C@H](C)[C@@H](O[C@H]2C[C@@](C)(OC)[C@@H](O)[C@H](C)O2)[C@H](C)[C@@H](O[C@@H]2O[C@H](C)C[C@H](N(C)C)[C@H]2O)[C@](C)(OC)C[C@@H](C)C(=O)[C@H](C)[C@@H](O)[C@]1(C)O" : its % Phosphatase Activity (compared to DMSO) PRL-3 reads 86

Recorded % Phosphatase Activity (compared to DMSO) PRL-3 (compound "N=C(N)c1ccc(OCCCCCOc2ccc(C(=N)N)cc2)cc1" ): 95

For record [O-][n+]1cccc(CO)c1 [Mepiroxol] the listed % Phosphatase Activity (compared to DMSO) PRL-3 is 87

Entry "C=C(c1ccc(C(=O)O)cc1)c1cc2c(cc1C)C(C)(C)CCC2(C)C" ; % Phosphatase Activity (compared to DMSO) PRL-3 = 58

Recorded % Phosphatase Activity (compared to DMSO) PRL-3 (compound "CC1(C)Cc2c(-c3ccccc3)c(-c3ccc(Cl)cc3)c(CC(=O)O)n2C1" ): 69

Origin of measurements: paper PMC8119466
